test system: Staphylococcus aureus; experiment: Antibacterial activity against methicillin-resistant Staphylococcus aureus isolate M9 after 16 to 20 hrs by broth microdilution method; assay type: functional
measurement name: MIC (µg/mL)

- CCCCCCCCN(CCCCCCCC)C(=O)[C@@H](N)CCCCN.Cl.Cl: 1
- CCCCCCCCCCN(CCCCCCCCCC)C(=O)[C@H](N)CO.Cl: 32
- CCCCCCCCN(CCCCCCCC)C(=O)[C@@H](N)Cc1ccccc1.Cl: 32
- CCCCCCCCCCN(CCCCCCCCCC)C(=O)[C@@H](N)CO.Cl: 16
